# Target: T1, ZFP SBS#1087 (synthetic, UniProt P08047)
# T1 chain: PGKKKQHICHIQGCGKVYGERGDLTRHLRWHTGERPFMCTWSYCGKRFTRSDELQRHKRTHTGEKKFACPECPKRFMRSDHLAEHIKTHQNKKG
# Method summary: EMSA
# Run parameters: tags: MBP fusion
Measurement name: Kd (nM)
Answers are plain numbers, in nM.

Field request: Kd | item: CGGGCGGCC (dsDNA) DNA 1: CGGGCGGCC DNA 2: GGCCGCCCG
1.24
